Test: Aqueous solubility of HEMA monomer vs added NaCl at 70 °C (gravimetric titration, visual end point)
Assay type: physicochemical
Conditions: aqueous 1.5 M NaCl solution, water, 1.5 M NaCl, 70 °C; homogeneous at lower, emulsion at higher concentration; read-out: aqueous solubility of HEMA (homogeneous mixture vs emulsion)
Description: Deionized water (2.0 g) was added to a pre-weighed vial equipped with a magnetic stir bar. This vial was placed in an oil bath set at 70 °C and allowed to equilibrate for 20 min. HEMA was added to a second pre-weighed vial and then added dropwise to the first vial at 70 °C. After the addition of each drop of HEMA, the aqueous HEMA mixture was stirred at 70 °C for 1 min. Visual inspection was used to judge the point at which the HEMA monomer droplets were no longer fully dissolved. […]
Property Measured: solubility at 1 min

# solubility at 1 min of C=C(C)C(=O)OCCO [HEMA, 2-hydroxyethyl methacrylate] = ≥ 171 mg/mL
